- study.system: G protein-coupled receptor kinase 6 (Homo sapiens, UniProt P43250)
- Sequence (P43250 whole entry): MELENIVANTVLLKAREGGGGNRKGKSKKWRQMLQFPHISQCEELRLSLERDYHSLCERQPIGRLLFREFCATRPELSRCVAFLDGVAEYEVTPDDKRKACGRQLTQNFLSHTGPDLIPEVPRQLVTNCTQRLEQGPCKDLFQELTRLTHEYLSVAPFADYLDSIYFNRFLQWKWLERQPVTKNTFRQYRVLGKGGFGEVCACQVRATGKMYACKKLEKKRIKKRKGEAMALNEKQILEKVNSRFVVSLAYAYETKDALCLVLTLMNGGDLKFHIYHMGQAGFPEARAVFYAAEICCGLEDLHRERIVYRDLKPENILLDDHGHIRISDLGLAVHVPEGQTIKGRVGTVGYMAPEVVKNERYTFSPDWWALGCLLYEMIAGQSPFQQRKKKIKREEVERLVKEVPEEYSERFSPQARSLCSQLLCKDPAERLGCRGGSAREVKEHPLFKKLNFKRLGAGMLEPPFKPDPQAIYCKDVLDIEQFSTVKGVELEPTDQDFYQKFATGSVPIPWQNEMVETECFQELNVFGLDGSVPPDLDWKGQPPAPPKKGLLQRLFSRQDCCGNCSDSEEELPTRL
- assay.comment: Inhibition of human recombinant full-length GST-tagged human GRK6 using peptide substrate peptide-216 incubated for 7 hrs
measure: IC50

Check out these entries, answers already filled in.
[
  {
    "compound": "Cc1cccc(-c2nnc(SCCC(=O)O)n2C)c1",
    "IC50": "> 100 µM"
  },
  {
    "compound": "COc1cccc(-c2nnc(SCC(=O)O)[nH]2)c1OCc1ccccc1",
    "IC50": "> 100 µM"
  },
  {
    "compound": "Cc1cccc(-c2nnc(SCC(=O)O)n2C)c1",
    "IC50": "> 100 µM"
  },
  {
    "compound": "NC(=O)c1ccccc1-c1nnc(SCC(=O)O)[nH]1",
    "IC50": "> 100 µM"
  },
  {
    "compound": "Cc1cccc(Oc2ccc(-c3nnc(SCC(=O)O)[nH]3)cc2[N+](=O)[O-])c1",
    "IC50": "3.58 µM"
  },
  {
    "compound": "COc1ccc(-c2nnc(SCC(=O)O)[nH]2)c(Cl)c1OC",
    "IC50": "> 100 µM"
  },
  {
    "compound": "Cc1ccc(-c2nnc(SCC(=O)O)[nH]2)cc1[N+](=O)[O-]",
    "IC50": "0.751 µM"
  },
  {
    "compound": "Cc1cccc(-c2nnc(SCCC(=O)O)[nH]2)c1",
    "IC50": "> 100 µM"
  }
]

IC50 reading for O=C(O)CSc1nnc(-c2cc([N+](=O)[O-])ccc2O)[nH]1 : 14.1 µM

Reported IC50 ( COc1cc([N+](=O)[O-])ccc1-c1nnc(SCC(=O)O)[nH]1 ) = > 100 µM

So, COc1ccc([N+](=O)[O-])cc1-c1nnc(SCC(=O)O)[nH]1 ? Its IC50 was 77.5 µM

Record Cc1coc(-c2ccccc2NS(=O)(=O)c2ccc(S(=O)(=O)N3CCCCCC3)cc2)c1 . Reported IC50: > 60 µM

Item: O=C(O)CSc1nnc(-c2ccccc2N2CCOCC2)[nH]1 | IC50: > 100 µM

// recorded IC50 for O=C(O)CSc1nnc(-c2cccc(C(=O)O)c2)[nH]1 : > 74 µM

For this compound ( O=C(O)CSc1nnc(-c2ccccc2OCCN2CCCC2)[nH]1 ), measured IC50 is > 100 µM

For reference, reported IC50 for COc1cccc(OC)c1-c1nnc(SCC(=O)O)[nH]1 stands at > 100 µM

The recorded IC50 for entry COc1cc(-c2nnc(SCC(=O)O)[nH]2)ccc1F equals 4.52 µM

---

Reported pIC50 values for the following molecules.
- study.system: UniProt:P43250
- assay.comment: Inhibition of human recombinant full-length GST-tagged human GRK6 using peptide substrate peptide-216 incubated for 7 hrs
pIC50: −log10 of the molar value.

Some solved cases for reference:
[
  {
    "molecule": "COc1ccc(NC(c2ccccn2)c2ccc3cccnc3c2O)cc1 (configuration not stated)",
    "study.system": "UniProt:P43250",
    "measure": "pIC50",
    "result": 4.99
  },
  {
    "molecule": "COC(=O)c1ccccc1-c1nnc(SCC(=O)O)[nH]1",
    "study.system": "UniProt:P43250",
    "measure": "pIC50",
    "result": "< 4.00"
  },
  {
    "molecule": "COc1cccc(-c2nnc(SCC(=O)O)[nH]2)c1OC",
    "study.system": "UniProt:P43250",
    "measure": "pIC50",
    "result": "< 4.00"
  },
  {
    "molecule": "COC(=O)CSc1nnc(-c2cccc(C)c2)[nH]1",
    "study.system": "UniProt:P43250",
    "measure": "pIC50",
    "result": "< 4.00"
  },
  {
    "molecule": "COc1cccc(O)c1-c1nnc(SCC(=O)O)[nH]1",
    "study.system": "UniProt:P43250",
    "measure": "pIC50",
    "result": "< 4.00"
  },
  {
    "molecule": "COc1cc(-c2nnc(SCC(=O)O)[nH]2)cc(F)c1O",
    "study.system": "UniProt:P43250",
    "measure": "pIC50",
    "result": 5.48
  },
  {
    "molecule": "COc1ccc(-c2nnc(SCC(=O)O)[nH]2)c(OC)c1OC",
    "study.system": "UniProt:P43250",
    "measure": "pIC50",
    "result": "< 4.00"
  },
  {
    "molecule": "O=C(O)CSc1nnc(-c2cc(C(=O)O)ccc2O)[nH]1",
    "study.system": "UniProt:P43250",
    "measure": "pIC50",
    "result": "< 4.00"
  },
  {
    "molecule": "CC(=O)CSc1nnc(-c2cccc(C)c2)[nH]1",
    "study.system": "UniProt:P43250",
    "measure": "pIC50",
    "result": "< 4.00"
  },
  {
    "molecule": "COc1ccc(-c2nnc(SCC(=O)O)[nH]2)c(OC)c1C",
    "study.system": "UniProt:P43250",
    "measure": "pIC50",
    "result": "< 4.00"
  }
]

Query Cc1cccc(-c2nnc(SCC(=O)N(C)C)[nH]2)c1 yields pIC50 of < 4.00

Quick note, pIC50 for CN1CCN(c2ccc(-c3nnc(SCC(=O)O)[nH]3)c(F)c2)CC1 landed at < 4.00

Sure, the documented pIC50 for COc1ccc(OC)c(-c2nnc(SCC(=O)O)[nH]2)c1 is < 4.00

Measured pIC50 of COc1cc([N+](=O)[O-])cc(-c2nnc(SCC(=O)O)[nH]2)c1O : 4.46

pIC50 measured on O=C(O)CSc1nnc(-c2cccc([N+](=O)[O-])c2O)[nH]1 = < 4.15

Note to self: pIC50 recorded for O=C(O)COc1ccccc1-c1nnc(SCC(=O)O)[nH]1 was < 4.00

Cc1cccc(-c2n[nH]c(SCC(N)=O)n2)c1 has a reported pIC50 of < 4.00

Entry CN(C)c1ccc(-c2nnc(SCC(=O)O)[nH]2)cc1 ; pIC50 = < 4.00

Quick note, pIC50 for CN(C)CCCOc1ccccc1-c1nnc(SCC(=O)O)[nH]1 landed at < 4.00

Recorded pIC50 (molecule Cc1cccc(-c2nnc(SC(C)C(=O)O)n2C)c1 (configuration not stated) ): < 4.00

Per the record, COc1cc(-c2nnc(SCC(=O)O)[nH]2)c([N+](=O)[O-])cc1OC has pIC50 of < 4.00

Lab note: COc1cc(N(C)C)ccc1-c1nnc(SCC(=O)O)[nH]1 gave pIC50 of < 4.00

// field: pIC50; key: COc1ccc(-c2nnc(SCC(=O)O)[nH]2)cc1[N+](=O)[O-] ; value = 5.98

Sure, the documented pIC50 for COc1cc(O)cc(OC)c1-c1nnc(SCC(=O)O)[nH]1 is < 4.00

Measured pIC50, COc1c(F)cccc1-c1nnc(SCC(=O)O)[nH]1 : < 4.00

// sample O=C(O)CSc1nnc(-c2ccccc2C(=O)O)[nH]1 , its pIC50 was < 4.00

The value of pIC50 measured for the molecule COc1cc(OC)c(-c2nnc(SCC(=O)O)[nH]2)cc1OC turned out to be < 4.00
